Each entry below carries its measured IC50, system: Fibroblast growth factor receptor 1 (Homo sapiens, UniProt P11362).
Sequence (P11362 whole entry): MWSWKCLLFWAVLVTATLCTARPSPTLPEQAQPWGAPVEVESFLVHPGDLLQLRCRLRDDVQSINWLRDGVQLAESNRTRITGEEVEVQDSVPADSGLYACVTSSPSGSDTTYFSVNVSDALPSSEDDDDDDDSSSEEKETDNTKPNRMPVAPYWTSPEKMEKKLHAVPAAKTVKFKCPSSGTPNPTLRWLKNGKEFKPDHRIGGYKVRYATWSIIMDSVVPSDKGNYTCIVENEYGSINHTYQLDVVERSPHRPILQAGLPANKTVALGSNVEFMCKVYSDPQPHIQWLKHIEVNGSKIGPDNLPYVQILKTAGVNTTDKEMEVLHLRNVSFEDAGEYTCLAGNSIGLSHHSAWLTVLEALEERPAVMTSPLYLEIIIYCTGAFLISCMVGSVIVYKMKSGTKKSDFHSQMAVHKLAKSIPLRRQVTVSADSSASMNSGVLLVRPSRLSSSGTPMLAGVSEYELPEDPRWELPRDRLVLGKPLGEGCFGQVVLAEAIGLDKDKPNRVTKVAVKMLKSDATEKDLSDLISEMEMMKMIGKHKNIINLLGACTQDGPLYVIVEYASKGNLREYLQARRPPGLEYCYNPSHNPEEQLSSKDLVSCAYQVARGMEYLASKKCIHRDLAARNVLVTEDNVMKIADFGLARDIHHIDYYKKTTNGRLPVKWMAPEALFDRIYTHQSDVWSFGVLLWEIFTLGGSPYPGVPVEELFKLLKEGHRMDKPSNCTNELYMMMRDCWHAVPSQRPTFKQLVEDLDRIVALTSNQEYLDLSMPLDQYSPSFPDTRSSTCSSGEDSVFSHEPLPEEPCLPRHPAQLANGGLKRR
Form entry: value (nM) — number only.

Examples from the recorded data:
entry smiles	value unit	IC50
CCN(CC)CCCOc1ccc(Nc2cc3nc(O)c(-c4c(Cl)cccc4Cl)cc3cn2)cc1	nM	440
Cn1c(=O)c(-c2c(Cl)cccc2Cl)cc2cnc(Nc3ccc(N4CCOCC4)cc3)nc21	nM	100

Form field IC50, entry "CCN(CC)CCCCCNc1cc2c(cn1)cc(-c1c(Cl)cccc1Cl)c(=O)n2C" : 80

###

Each entry below carries its measured pIC50, system: UniProt P05622.
Sequence (P05622 whole entry): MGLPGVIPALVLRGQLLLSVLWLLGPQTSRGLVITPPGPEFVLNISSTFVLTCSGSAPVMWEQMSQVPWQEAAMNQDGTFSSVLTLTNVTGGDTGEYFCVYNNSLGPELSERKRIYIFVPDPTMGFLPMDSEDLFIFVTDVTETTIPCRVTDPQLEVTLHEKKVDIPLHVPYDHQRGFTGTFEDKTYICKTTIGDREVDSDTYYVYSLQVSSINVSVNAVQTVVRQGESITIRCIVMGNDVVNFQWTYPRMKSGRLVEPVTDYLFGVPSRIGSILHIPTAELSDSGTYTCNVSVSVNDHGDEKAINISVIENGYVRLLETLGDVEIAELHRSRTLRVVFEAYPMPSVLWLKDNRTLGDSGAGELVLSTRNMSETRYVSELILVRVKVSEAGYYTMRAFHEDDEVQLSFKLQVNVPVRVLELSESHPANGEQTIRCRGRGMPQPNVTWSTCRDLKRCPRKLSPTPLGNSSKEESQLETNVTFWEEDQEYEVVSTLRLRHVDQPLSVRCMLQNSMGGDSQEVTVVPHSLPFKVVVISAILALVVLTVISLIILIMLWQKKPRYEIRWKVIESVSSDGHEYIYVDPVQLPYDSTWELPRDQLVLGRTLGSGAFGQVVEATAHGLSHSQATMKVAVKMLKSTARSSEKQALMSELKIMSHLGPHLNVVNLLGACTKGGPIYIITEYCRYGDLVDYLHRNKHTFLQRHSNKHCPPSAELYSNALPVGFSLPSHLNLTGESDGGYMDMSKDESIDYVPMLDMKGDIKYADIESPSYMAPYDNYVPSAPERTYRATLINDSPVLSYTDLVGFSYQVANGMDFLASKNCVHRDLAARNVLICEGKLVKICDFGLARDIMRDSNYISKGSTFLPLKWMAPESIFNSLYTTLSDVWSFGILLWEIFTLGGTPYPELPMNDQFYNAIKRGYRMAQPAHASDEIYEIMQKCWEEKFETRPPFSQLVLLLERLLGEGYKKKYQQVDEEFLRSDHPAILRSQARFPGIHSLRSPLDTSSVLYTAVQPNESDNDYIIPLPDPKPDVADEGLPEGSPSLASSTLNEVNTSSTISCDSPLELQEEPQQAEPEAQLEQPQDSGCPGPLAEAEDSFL
pIC50: −log10 of the molar value.

Examples from the recorded data:
entry smiles	target	recorded endpoint	result
Cn1c(=O)c(-c2c(Cl)cccc2Cl)cc2ccc(Nc3ccccc3)nc21	UniProt P05622	pIC50	< 4.30
CCN(CC)CCOc1ccc(Nc2ccc3cc(-c4c(Cl)cccc4Cl)c(=O)n(C)c3n2)cc1	UniProt P05622	pIC50	< 4.30

Entry "CCN(CC)CCCOc1ccc(Nc2cc3nc(O)c(-c4c(Cl)cccc4Cl)cc3cn2)cc1" , UniProt P05622 data, pIC50 value: 6.10

###

Listing of entries alongside the reported pIC50.
Tested on: HCT-8
Assay: Inhibitory activity against HCT-8 human colon adenocarcinoma cells was determined.
Assay type: functional, cell-based
Field pIC50 (float): negative decimal logarithm of the concentration in molar.

Examples from the recorded data:
entry smiles	pIC50
CN1CCN(CCCNc2cc3c(cn2)cc(-c2c(Cl)cccc2Cl)c(=O)n3C)CC1	5.55
CN1CCN(c2ccc(Nc3cc4c(cn3)cc(-c3c(Cl)cccc3Cl)c(=O)n4C)cc2)CC1	5.68
Cn1c(=O)c(-c2c(Cl)cccc2Cl)cc2cnc(Nc3ccc(N4CCOCC4)cc3)nc21	5.82
CCN(CC)CCOc1ccc(Nc2cc3c(cn2)cc(-c2c(Cl)cccc2Cl)c(=O)n3C)cc1	5.55

Would you kindly look at the next entry?
Form field pIC50, entry "CN1CCN(CCCCNc2cc3c(cn2)cc(-c2c(Cl)cccc2Cl)c(=O)n3C)CC1" : 5.62

The measurements presented in this section are drawn from ChEMBL document CHEMBL1133618.
